# Tested on: SF-268
# Protocol Summary: NCI tumour cell line growth inhibition, 48 h
Activity calls are given as the source filed them. Rule as the data show it: active = GI50 up to about 1.1 µM and inactive = higher.
Parameter call: string, one of 1 (yes) = active, 0 (no) = inactive

Sample answers from the record:
# Compound, Classification
measured = [
    ("COC(=O)C(Cc1ccc2c(c1)CCCC2)Cc1cc2c(cc1C(O)OC)CCC2 (stereo not given)", "0 (no)"),
    ("O=C(OCc1ccccc1C1CSCSC1)c1cc(C(=O)OCc2ccccc2C2CSCSC2)c(C(=O)OCc2ccccc2C2CSCSC2)cc1C(=O)OCc1ccccc1C1CSCSC1", "0 (no)"),
    ("N#CC1(C#N)N[C@@H](c2ccsc2)[C@H]2C(=O)N(c3ccccc3)C(=O)[C@H]21", "0 (no)"),
    ("O=C(c1ccccc1)c1sc2c(=O)c(C(=O)c3ccccc3)c(C(=O)c3ccccc3)sc2c(=O)c1C(=O)c1ccccc1", "0 (no)"),
    ("CC(NC(=O)C(N)CC(=O)O)C(=O)OC12CC3CC(CC(C3)C1)C2 (stereo not given)", "0 (no)"),
]

// query Dear all, I need the recorded test outcome for `Cc1cc(C)c2c(n1)S(=O)(=O)N(CCCN1CCN(c3cccc(Cl)c3)CC1)C(C(=O)c1ccc(Br)cc1)=C2O` , thank you.
// result 0 (no)

###

# Test system: HCT-116
# Protocol Summary: NCI tumour cell line growth inhibition, 48 h
Activity calls are given as the source filed them. Rule as the data show it: active = GI50 up to about 1.1 µM and inactive = higher.
Property Measured: GI50

# Compound, GI50
rows = [
    ("Nc1ncnc2c1ncn2[C@]1(CO)C=C(CO)C(O)C1O (some centres not stated)", "73.1 µM (inactive)"),
]

Continue with the compound presented below.
// query Which value of GI50 has been reported for `COc1oc(C(=O)NC2CCCCC2)c(-c2ccc(Cl)cc2)c1S(=O)(=O)c1ccccc1` in the records?
// result 33.3 µM (inactive)

###

# Tested on: SK-MEL-28
# Protocol Summary: NCI tumour cell line growth inhibition, 48 h
Calls of active or inactive are those of the source. No stated cut-off is given here; in the data, active = GI50 up to about 1.1 µM and inactive = higher.
The following compounds are shown together with reported GI50 values.

# Compound, Target Or System, Reported Value
measured = [
    ("COc1cc(Br)c(/C=N\\c2cccc3ccc(OS(=O)(=O)c4ccc([N+](=O)[O-])cc4)cc23)cc1OC", "SK-MEL-28", "28.6 µM (inactive)"),
    ("O=C1OC(c2ccccc2)N(C(=O)c2ccccc2)C1Cc1ccc(OCc2ccccc2)cc1 (stereo unspecified)", "SK-MEL-28", "> 100 µM (inactive)"),
    ("CCOC(=O)[C@H]1Nc2ccc(Cl)cc2[C@H]2c3ccccc3O[C@H]21", "SK-MEL-28", "35.2 µM (inactive)"),
    ("Cc1cc(O)cc2oc(=O)c3c(O)cc(O)cc3c12", "SK-MEL-28", "> 100 µM (inactive)"),
    ("N/N=C1/C(=N/O)CCc2nonc21", "SK-MEL-28", "> 100 µM (inactive)"),
    ("c1ccc2c(c1)NC1(N3CCCCC3)CCCCC21 (stereo unspecified)", "SK-MEL-28", "49.3 µM (inactive)"),
    ("CC(=O)Nc1ccc2nncnc2c1", "SK-MEL-28", "> 100 µM (inactive)"),
    ("O=C(O)c1ccc(SSc2ccc(C(=O)O)cn2)nc1", "SK-MEL-28", "> 100 µM (inactive)"),
    ("COc1cccc([C@H]2CC(=O)c3cc4c(cc3N2)OCO4)c1", "SK-MEL-28", "4.82 µM (inactive)"),
    ("O=C(CCl)N1CCN(c2ccccn2)CC1", "SK-MEL-28", "20 µM (inactive)"),
]

Now let's try a different one.
// query Return reported GI50; argument: OC(c1cccnc1Cl)c1nc2ccccc2c2ccnc(Cl)c12 (stereo unspecified)
// result 23.7 µM (inactive)

###

# System: DU-145
# Protocol Summary: NCI tumour cell line growth inhibition, 48 h
Active and inactive are the calls of the source. Cut-off read from the data, not from the text of the source: active = GI50 up to about 1.1 µM and inactive = higher.
Give your call using only these classes: YES (active), NO (inactive)

// query What was the test verdict on `Cc1ccc2c(/C=C/c3ccc(N(C)C)cc3)ccc(C(C)C)cc1-2` ?
// result NO

// query Per the assay record, what outcome was assigned to `COc1ccc(C[C@H]2NC[C@H](OC(C)=O)[C@H]2OC(C)=O)cc1` ?
// result YES

// query Please state the recorded outcome for this compound: `C/C=C(/C)C(=O)O[C@H]1CCN2CC=C(COC(=O)[C@@](O)([C@H](C)OC)C(C)(C)O)[C@H]12`
// result NO

// query Give the logged outcome of this assay for the following compound: `COC(=O)c1ccccc1Nc1ccccc1C(=O)OC`
// result NO

// query # outcome recorded in this test, key = `O=C(c1ccccc1)C(C(=O)c1ccccc1)c1nc2ccccc2sc1=O`
// result NO

// query # fetch the recorded call for COC(=O)CCC1=CCC2(SC)C(=O)Nc3cccc1c32 (stereo unspecified) here
// result NO

// query What was the test verdict on C=C(C)C(CC=C(C)C)Cc1c(O)cc(OC)c2c1OC(c1ccc(O)cc1O)C(O)C2=O (stereo unspecified) ?
// result NO

// query Recorded test call requested for `C[C@@H](NC(=O)Cn1c(Cl)nc2ccccc21)c1ccccc1`
// result NO

###

# System: NCI/ADR-RES
# Protocol Summary: NCI tumour cell line growth inhibition, 48 h
The source made the active and inactive calls. Rule as the data show it: active = GI50 up to about 1.1 µM and inactive = higher. Where a SMILES comes first, the peptide text is derived from it. Bridges are numbered along the chain shown (N, C = ends). [ ]: non-standard residue; d: D form. The star is where a group is joined. ξ: configuration not given here. ξNMePhe(4-NMe2) = CNC(Cc1ccc(N(C)C)cc1)C(=O)O; Picolinoyl(3-OH) = O=C(c1ncccc1O)*; ξPip(4-oxo) = O=C1CCNC(C(=O)O)C1; Phg = N[CH](C(=O)O)c1ccccc1; Abu = CC[CH](N)C(=O)O
Give one outcome, nothing more. List: Y = active, N = inactive

# Molecule, Target Or System, Classification
data = [
    ("COc1ccc(NCn2nc(CCCCCCCCc3nn(CNc4ccc(OC)cc4)c(=S)o3)oc2=S)cc1", "NCI/ADR-RES", "N"),
    ("CCOC(=O)c1nc2ccc(C(F)(F)F)cc2nc1Oc1ccc(OC)cc1", "NCI/ADR-RES", "N"),
    ("Oc1c(OCc2nnc(CCCCCCCCc3nnc(COc4ccc5ccccc5c4O)o3)o2)ccc2ccccc12", "NCI/ADR-RES", "N"),
]

// query Just curious, what result did COC(=O)C1(Cc2ccc3c(c2)CCC3)Cc2ccc3c(c2C1=O)CCC3 (configuration not stated) get here?
// result N

// query GET /call?item= Cc1ccc(C2=C(C#N)C(N)OC3=C2COc2ccccc23)cc1 (configuration not stated) returns the recorded outcome of this test.
// result N

// query Call for entry `C/C(=C\COP(=O)(O)OP(=O)(O)O)CC/C=C(\C)CNc1ccccc1` :
// result N

// query Each molecule tested received a call. Report the one for CC1=C/C(O)CC(=O)Cc2nc(co2)C(=O)N2CCC=C2C(=O)OC(C(C)C)C(C)/C=C/C(=O)NC\C=C\1.CCC1NC(=O)C(NC(=O)c2ncccc2O)C(C)OC(=O)C(c2ccccc2)NC(=O)C2CC(=O)CCN2C(=O)C(Cc2ccc(N(C)C)cc2)N(C)C(=O)C2CCCN2C1=O (configuration not stated) ({Picolinoyl(3-OH)}-T[Abu]P[ξNMePhe(4-NMe2)][ξPip(4-oxo)][Phg]; ester 1-C; configuration not given here) .
// result N

###

Examples of compounds with documented GI50 follow.
# Tested on: SF-295
# Protocol Summary: NCI tumour cell line growth inhibition, 48 h
Calls of active or inactive are those of the source. Cut-off read from the data, not from the text of the source: active = GI50 up to about 1.1 µM and inactive = higher. *1 amine or outer side, *2 acyl side, *3 side chain or, on linkers, in order; H or OH if unused. Where a SMILES comes first, the peptide text is derived from it. Bridges are numbered along the chain shown (N, C = ends). [ ]: non-standard residue; d: D form. The star is where a group is joined. ξ: configuration not given here. ξOrn(4,5-diOH) = O=C(C(CC(O)C(O)N[*:3])N[*:1])[*:2]; ξhTyr(βξ-OH,γξ-OH) = NC(C(=O)O)C(O)C(O)c1ccc(O)cc1; ξPro(3ξ-OH,4ξ-Me) = CC1CNC(C(=O)O)C1O; X55 = CCCCC/C=C/C/C=C\CCCCCCCC(=O)*; Hyp = O=C(O)[CH]1C[CH](O)CN1

# Compound, GI50
records = [
    ("OCC(Cn1cncn1)(c1ccc(F)cc1F)n1cncn1 (stereo not given)", "> 100 µM (inactive)"),
    ("O=S(=O)(c1ccccc1)C1CC(c2nc3ccccc3[nH]2)=NO1 (stereo not given)", "> 100 µM (inactive)"),
    ("CCOC(=O)[C@@H]1ON2OC(OC3CCCC3(c3ccccc3)c3ccccc3)C(OC(C)=O)[C@H]3OC(=O)[C@@H]1C32 (stereo not given in full)", "31.6 µM (inactive)"),
    ("CCCCC/C=C/C/C=C\\CCCCCCCC(=O)NC1CC(O)C(O)NC(=O)C2C(O)C(C)CN2C(=O)C(C(C)O)NC(=O)C(C(O)C(O)c2ccc(O)cc2)NC(=O)C2CC(O)CN2C(=O)C(C(C)O)NC1=O (stereo not drawn) (X55-[ξOrn(4,5-diOH)]T[Hyp][ξhTyr(βξ-OH,γξ-OH)]T[ξPro(3ξ-OH,4ξ-Me)]; lactam 1-C; configuration not given here)", "> 100 µM (inactive)"),
]

// query For the record `Clc1ccc(CSCc2ccc(Cl)cc2Cl)c(Cl)c1` , what value of GI50 is listed for SF-295?
// result 37.3 µM (inactive)

// query Reported GI50 for SF-295, given `CCOC(=O)c1c(NC(=O)Nc2ccccc2)c(C(N)=O)c2n1CCCCC2` ?
// result > 100 µM (inactive)

// query What reported GI50 corresponds to `O=c1cc(NNc2cccc(F)c2)[nH]c(=S)[nH]1` on SF-295?
// result > 100 µM (inactive)

// query Give the reported GI50 for `Nc1nc(-c2ccco2)cc(-c2ccco2)n1` (system: SF-295).
// result > 100 µM (inactive)

// query Notebook: pull reported GI50 for SF-295, entry CN1CC2=C(N=C(S)NC2c2ccccc2)/C(=C/c2ccccc2)C1 (stereo not given)
// result 17.9 µM (inactive)

// query Given the entry `COc1cc2c(cc1OC)C(Cc1cc(Br)c(OC)c(OC)c1)=[N+](C)CC2` , what GI50 was observed with SF-295?
// result 30.5 µM (inactive)
